# testedTarget: human TLR7 (hTLR7) (Homo sapiens, UniProt Q9NYK1)
# Construct: expressed in transfected cells; host or cells: HEK293
# Sequence (Q9NYK1 27-1049): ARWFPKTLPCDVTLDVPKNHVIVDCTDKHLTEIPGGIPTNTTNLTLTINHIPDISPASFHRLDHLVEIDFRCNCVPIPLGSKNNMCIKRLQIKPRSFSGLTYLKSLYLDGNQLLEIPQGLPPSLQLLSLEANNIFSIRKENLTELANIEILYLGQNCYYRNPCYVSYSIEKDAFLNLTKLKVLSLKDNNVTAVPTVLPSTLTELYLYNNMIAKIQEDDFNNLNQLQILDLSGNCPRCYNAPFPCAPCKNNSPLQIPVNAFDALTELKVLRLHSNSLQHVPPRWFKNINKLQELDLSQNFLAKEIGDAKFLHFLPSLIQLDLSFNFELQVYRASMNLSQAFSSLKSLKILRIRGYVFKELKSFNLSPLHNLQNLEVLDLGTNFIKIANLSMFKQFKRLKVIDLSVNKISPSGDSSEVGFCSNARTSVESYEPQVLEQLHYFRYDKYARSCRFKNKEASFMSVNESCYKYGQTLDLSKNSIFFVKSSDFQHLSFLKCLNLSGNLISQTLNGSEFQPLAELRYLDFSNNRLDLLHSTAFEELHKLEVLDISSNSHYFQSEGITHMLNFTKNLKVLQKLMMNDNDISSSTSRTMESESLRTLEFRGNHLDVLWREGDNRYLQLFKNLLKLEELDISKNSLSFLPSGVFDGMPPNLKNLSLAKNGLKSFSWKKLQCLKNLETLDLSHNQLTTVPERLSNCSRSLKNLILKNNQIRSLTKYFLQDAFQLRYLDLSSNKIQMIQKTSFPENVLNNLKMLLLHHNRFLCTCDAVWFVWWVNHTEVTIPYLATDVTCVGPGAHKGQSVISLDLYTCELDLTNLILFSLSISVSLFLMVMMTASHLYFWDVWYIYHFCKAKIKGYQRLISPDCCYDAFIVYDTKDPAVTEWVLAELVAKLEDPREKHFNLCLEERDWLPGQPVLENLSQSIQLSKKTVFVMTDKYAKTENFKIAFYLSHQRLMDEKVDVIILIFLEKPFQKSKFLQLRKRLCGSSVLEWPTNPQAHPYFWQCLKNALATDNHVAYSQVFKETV
# testDescription: TLR7 cellular NFκB-luc reporter assay in transiently transfected HEK293 cells
# Type: cell-based
# Design: unit not given here
# measurementSetup: lowest effective concentration, wild type TLR7, 48 hours incubation
hTLR7 wt (LEC) under 2 gets y, anything at or over 2 gets n.

Req: Quick check: hTLR7 wt (LEC) of CCCCNc1nc(N)ncc1CCc1ccc(OC)cc1OC.Cl [Example 3] under 2?
Resp: n

Req: Quick check: hTLR7 wt (LEC) of CCCCNc1nc(N)ncc1CCc1ccccc1.Cl [Example 2] under 2?
Resp: n

Req: Quick check: hTLR7 wt (LEC) of CCCCNc1nc(N)ncc1CCc1ccc2ccccc2n1.Cl [Example 7] under 2?
Resp: y

Req: Quick check: hTLR7 wt (LEC) of CCCCNc1nc(N)ncc1CC.Cl [Example 1] under 2?
Resp: n

Req: Quick check: hTLR7 wt (LEC) of CCCCNc1nc(N)ncc1CCc1ccccc1OC.Cl [Example 4] under 2?
Resp: n

Req: Quick check: hTLR7 wt (LEC) of CCCCNc1nc(N)ncc1CCc1cccs1.Cl [Example 8] under 2?
Resp: n

Req: Quick check: hTLR7 wt (LEC) of CCCCNc1nc(N)ncc1CCc1cccnc1.Cl [Example 5] under 2?
Resp: y

Req: Quick check: hTLR7 wt (LEC) of CCCCNc1nc(N)ncc1CCc1ccccn1.Cl [Example 6] under 2?
Resp: y

// data source = patent US9284304B2
